Experiment: Clearance in male Sprague-Dawley rat at 1 mg/kg, iv administered via tail vein and measured upto 24 hrs
Assay type: ADME, organism-based
Conditions: in vivo
measurementKind: clearance

For record "COc1cc2c(O[C@H]3CC[C@@H](N)CC3)ncnc2cc1OCc1ccccc1" the listed clearance is 3.83 mL/min/kg

###

Experiment: Cytotoxicity against mouse RAW264.7 cells assessed as cell viability by MTT assay
Assay type: toxicity, cell-based
Set-up: concentration or dose not given beside the values
Details: read-out: Activity
Below, each of the compounds is paired with its reported viability value.
The reply should be a number in %, with the unit left off.

{"structureSmiles": "COc1cc2ncnc(N[C@H]3CC[C@H](N)CC3)c2cc1OC", "recordedResult": 108}
{"structureSmiles": "COc1cc2ncnc(Oc3cccc(NC(=O)N[C@H]4CC[C@@H](NC(=O)c5ccccn5)CC4)c3)c2cc1OC", "recordedResult": 116}
{"structureSmiles": "COc1cc2ncnc(Oc3cccc(NC(=O)N[C@H]4CC[C@@H](NC(=O)c5ccc(C)cc5)CC4)c3)c2cc1OC", "recordedResult": 124}
{"structureSmiles": "N[C@H]1C[C@@H](OC(=O)c2nn(-c3ccccc3)ccc2=O)C1", "recordedResult": 89}
{"structureSmiles": "COc1cc2ncnc(O[C@H]3CC[C@H](N)CC3)c2cc1OC", "recordedResult": 93.7}

So for "COCCOc1cc2ncnc(O[C@H]3CC[C@@H](N)CC3)c2cc1OCCOC" , the logged viability turned out to be 98.6

Looking up "N[C@H]1CC[C@@H](Oc2ncnc3ccccc23)CC1" , I see its viability listed as 103

Measured viability, "COc1cc2ncnc(Oc3cccc(NC(=O)N[C@H]4CC[C@@H](NC(=O)c5ccc(F)cc5)CC4)c3)c2cc1OC" : 123

For "COc1cc2ncnc(N[C@H]3CC[C@@H](NC(=O)c4ccc(C)cc4)CC3)c2cc1OC" the compound record lists viability as 97.8

Entry "COc1cc2ncnc(Oc3cccc(NC(=O)N[C@H]4CC[C@@H](N)CC4)c3)c2cc1OC" — recorded viability = 91.5

// field: viability; key: "COc1cc2ncnc(Oc3cccc(NC(=O)O[C@H]4C[C@@H](N)C4)c3)c2cc1OC" ; value = 106

Reported viability of "COc1cc2c(N[C@H]3CC[C@@H](N)CC3)ncnc2cc1OCc1ccccc1" : 86.7

# viability of "COc1cc2ncnc(O[C@H]3CC[C@@H](N)CC3)c2cc1OC" = 88.9

Origin of measurements: ChEMBL document CHEMBL5523725
